Hi there, I'd appreciate the recorded GI50 for every entry that follows.
System: M19-MEL
Experimental Protocol: NCI tumour cell line growth inhibition, 48 h
Activity calls are given as the source filed them. Rule as the data show it: active = GI50 up to about 1.1 µM and inactive = higher.

Solved entries (count: 5):
[
  {
    "Compound": "CN(C=O)/C=C/c1cc(O)ccc1O",
    "Experimental Readout": "GI50",
    "Reading": "20.8 µM (inactive)"
  },
  {
    "Compound": "O=C(CC(=O)c1cccc2ccccc12)C(=O)NC1C2CC3CC(C2)CC1C3 (stereo unspecified)",
    "Experimental Readout": "GI50",
    "Reading": "> 100 µM (inactive)"
  },
  {
    "Compound": "CCOC(=O)CC1=N/C(=N/C(=N)N[N+](=O)[O-])SC1",
    "Experimental Readout": "GI50",
    "Reading": "> 100 µM (inactive)"
  },
  {
    "Compound": "C1OC1CO[C@@H]1CO[C@H]2[C@@H]1OC[C@H]2OCC1CO1 (stereo partly specified)",
    "Experimental Readout": "GI50",
    "Reading": "> 100 µM (inactive)"
  },
  {
    "Compound": "CSCSCC(N)CO.Cc1[nH]c(=O)[nH]c(=O)c1/C=C/C(=O)O",
    "Experimental Readout": "GI50",
    "Reading": "> 625 µM (inactive)"
  }
]

The following compounds each have a reported value; give each one's GI50.
1. Cc1ccc(C2(O)CC(c3ccc([N+](=O)[O-])o3)=NN2C(=O)COc2ccc(Cl)cc2)cc1 (stereo unspecified)
2. CC(C)C(=O)Nc1nc2c(ncn2C2OC(CO)C(O)C2O)c(=O)[nH]1 (stereo unspecified)
3. COC1(C)CNCC(C)(C)NC(=O)C(C)(OC)CNCC(C)(C)NC1=O (stereo unspecified)
4. [N-]=[N+]=Nc1ncnc2c1sc(=S)n2-c1ccccc1

Result:
3.67 µM (inactive)
> 100 µM (inactive)
> 100 µM (inactive)
> 100 µM (inactive)

The following compounds each have a reported value; give each one's GI50.
1. c1ccc(SC23C4C5C6C4C2C6C53)nc1 (stereo unspecified)
2. N#C/C(=C/c1cccc2ccccc12)C(=O)c1ccccc1

Result:
1: > 100 µM (inactive); 2: 28.4 µM (inactive)

---

Tested on: COLO 205
Experimental Protocol: NCI tumour cell line growth inhibition, 48 h
Active and inactive are the calls of the source. No stated cut-off is given here; in the data, active = GI50 up to about 1.1 µM and inactive = higher.
// one of active, inactive, no free text

[
  {
    "Compound": "O=NN(CCCl)C(=O)NCCCl",
    "Label": "inactive"
  },
  {
    "Compound": "O=C(Sc1sc(=S)sc1SC(=O)c1ccccc1)c1ccccc1",
    "Label": "inactive"
  },
  {
    "Compound": "COC(=O)C1CCOC(C)N1C(=O)OC(C)(C)C (stereo unspecified)",
    "Label": "inactive"
  },
  {
    "Compound": "O=C(/C=C/c1ccc(O)c(O)c1)OCc1ccccc1 [BENZYL CAFFEATE]",
    "Label": "inactive"
  },
  {
    "Compound": "COC1=CC(=O)C2=C(C1=O)[C@H]1CC[C@]3(C)[C@@H](OC(C)=O)CC[C@H]3[C@@H]1CC2",
    "Label": "inactive"
  },
  {
    "Compound": "Cc1nc2ccccc2c(=O)n1/N=C(\\N=N\\c1cc(Cl)ccc1Cl)c1ccccc1",
    "Label": "inactive"
  },
  {
    "Compound": "CC(C)(C)OC(=O)c1cccnc1/C=N/O",
    "Label": "inactive"
  },
  {
    "Compound": "COC(=O)[C@H]1C=C[C@@H](C)n2c(=O)c3ccccc3c(=O)n21",
    "Label": "inactive"
  },
  {
    "Compound": "CCN(CC)c1ccc(/N=N/c2ccc(-c3nc4cccnc4s3)cc2)cc1",
    "Label": "inactive"
  },
  {
    "Compound": "COc1ccc(C[C@@H](CO)NC2=C(C#N)CCC2)cc1",
    "Label": "inactive"
  }
]

Query: Assay outcome for `O=CC12CCCN1CCC2` : what was it?
Result: inactive
